# Organism: Mus musculus
# measurement-protocol: The compound was evaluated for half life (release of DOX) […] at 37 degree Celsius at the pH 5.
# Assay type: ADME
Reported T1/2 is given for each of the following compounds.
Give the number; h is assumed, so skip it.

[[record]]
compound = "COC(=O)C1(C)CC(C)(C(=O)O)CC(C)(C(=O)NC2CC(O[C@H]3C[C@](O)(C(=O)CO)Cc4c(O)c5c(c(O)c43)C(=O)c3c(OC)cccc3C5=O)OC(C)C2O)C1 (some centres undefined)"
recorded_value = 40

[[record]]
compound = "COc1cccc2c1C(=O)c1c(O)c3c(c(O)c1C2=O)C[C@@](O)(C(=O)CO)C[C@@H]3OC1CC(NC(=O)C2(C)CC(C)(C(=O)O)CC(C)(C(=O)O)C2)C(O)C(C)O1 (some centres undefined)"
recorded_value = 30


Which measured T1/2 value corresponds to CCCCNC(=O)C1(C)CC(C)(C(=O)O)CC(C)(C(=O)NC2CC(O[C@H]3C[C@](O)(C(=O)CO)Cc4c(O)c5c(c(O)c43)C(=O)c3c(OC)cccc3C5=O)OC(C)C2O)C1 (some centres undefined) ? 90
